# procedureSummary: NCI Yeast Anticancer Drug Screen. Data for the mec2-1 strain (AID 157)
# reportedConditions: S. cerevisiae mec2-1 strain, at 5.0 µM (retest, dose inferred, filed as 0.5)
This is part of a sample that, as a whole, favours compounds with a hit. Of some 79,000 tested, about 15% had one in any assay. Active and inactive are the calls of the source. Rule as the data show it: active = growth inhibition above about 70%; inactive = the rest.
// allowed return values: t for active, f for inactive

Please review the following examples before continuing.
NCCc1ccc(OCc2ccccc2)c(OCc2ccccc2)c1 : f
COC1(OC)C(Cl)=C(Cl)C(Cl)=C1Cl : f
CCCCCCCCCCCCN=C(N)N : t
[Au+].c1c[n-]cn1.c1ccc([PH+](c2ccccc2)c2ccccc2)cc1 : t
CCC(=O)OC1CCn2c1nc1c2C(=O)C(C)=C(N2CC2)C1=O (configuration not stated) : f
CCCCCCCCCCCCCCCC[N+](C)(C)CCBr : t
Nc1nc(N)c(-c2ccc(Cl)c(Cl)c2)c(CCc2ccc(CNC(=O)Nc3ccc(S(=O)(=O)F)cc3)cc2)n1 : f
CC1=CC2OC3CC4OC(=O)/C=C/C=C/C(C(C)O)OCC(O)C(C)CC(=O)OCC2(CC1O)C4(C)C31CO1 (configuration not stated) : f
[Ni+2].[O-][Cl+3]([O-])([O-])O.c1ccc([PH+](CC[PH+](c2ccccc2)c2ccccc2)c2ccccc2)cc1.c1ccc([PH+](CC[PH+](c2ccccc2)c2ccccc2)c2ccccc2)cc1 : f
CN(CCC(N)CC(=O)NC1C=CC(n2ccc(N)nc2=O)OC1C(=O)O)C(=N)N (configuration not stated) : t

Enquiry: # outcome recorded in this test, key = Cc1ccc(C(Cc2ccc(N3C(N)=NC(N)=NC3(C)C)cc2)C(=O)Nc2ccc(S(=O)(=O)F)cc2)cc1 (configuration not stated)
Return: f

Enquiry: # outcome recorded in this test, key = "CC[PH+](CC)CC.CC[PH+](CC)CC.[Au]"
Return: f

---

# procedureSummary: NCI Yeast Anticancer Drug Screen. Data for the mlh1 rad18 strain (AID 175)
# reportedConditions: S. cerevisiae mlh1 rad18 strain growth inhibition; at 50.0 µM (retest, dose inferred, filed as 5.0)
Compounds without any hit were thinned out: in the full panel of roughly 79,000, 15% have a hit. Activity calls are given as the source filed them. Rule as the data show it: active = growth inhibition above about 70%; inactive = the rest.
// allowed return values: active, inactive

Please review the following examples before continuing.
Cc1cc([N+](=O)[O-])c(O)c([N+](=O)[O-])c1C : active
O=[N+]([O-])/C=C/c1ccccc1 : active
OC(c1cc2c(c3ccccc13)CCCC2)C1CCCCN1 (stereo not drawn) : inactive
C1CC[N-]CC1.CC(=N\O)/C(C)=N/O.CC(=N\O)/C(C)=N/O.OC1[CH-]CCCC1.[Co+2] : inactive
CCC[CH2][Sn]([Cl])([CH2]Cl)[CH2]CCC : active
O=c1c[n+](-c2ccc[nH+]c2)[nH]o1.[Cl][Hg][Cl] : active

Enquiry: # outcome recorded in this test, key = "ClCc1nc2ccccc2[nH]1"
Return: active

---

# procedureSummary: NCI Yeast Anticancer Drug Screen. Data for the bub3 strain (AID 167)
# reportedConditions: S. cerevisiae bub3 mutant strain, at 50.0 µM (retest, dose inferred, filed as 5.0)
# Experimental: Growth inhibition of yeast strains with defined genetic alterations is measured as a screen for potential anti-cancer activity. Selected strains with alterations in DNA damage repair or cell cycle control were exposed to compounds and growth inhibition was measured relative to vehicle treated controls. The strain used in this assay is bub3
This is part of a sample that, as a whole, favours compounds with a hit. Of some 79,000 tested, about 15% had one in any assay. The source made the active and inactive calls. Cut-off read from the data, not from the text of the source: active = growth inhibition above about 70%; inactive = the rest.
// allowed return values: true (active), false (inactive)

CCCCCCC1CCC2CCCC(C)N12 (centres undefined) : true
CC(C)=[CH][Sb]([Br])([CH]=C(C)C)([CH]=C(C)C)[c]1ccccc1 : false
CC12CCC(C)(c3cc(O)c(O)cc31)c1cc(O)c(O)cc12 : false
CCCCCCCCCC[Se]C#N : true
COC1=C(C)C(=O)c2c(c(COC(N)=O)c3n2CC2C3N2C)C1=O (centres undefined) : false

Enquiry: # outcome recorded in this test, key = "Cc1nc(Cl)c(CBr)c(Cl)n1"
Return: true

Enquiry: # outcome recorded in this test, key = "C=Cc1c2ccccc2cc2ccccc12"
Return: false

Enquiry: # outcome recorded in this test, key = O=C(c1ccccc1)c1c(CC(O)c2ccccn2)n(C(=O)c2ccccc2)c2ccccc12 (centres undefined)
Return: true

Enquiry: # outcome recorded in this test, key = "Oc1cccc[c]1[Hg][Cl]"
Return: true

Enquiry: # outcome recorded in this test, key = CC(C)C1(NC(=O)C2C=C3c4cccc5[nH]cc(c45)CC3N(C)C2)OC2(O)C3CCCN3C(=O)C(Cc3ccccc3)N2C1=O (centres undefined) (tested in a mixture with another compound)
Return: true

Enquiry: # outcome recorded in this test, key = C[C@@H]1CCC2[C@@H](C)[C@H](O[C@H]3O[C@@H]4O[C@@]5(C)CCC6[C@H](C)CCC([C@H]3C)[C@]64OO5)O[C@@H]3O[C@@]4(C)CCC1[C@@]23OO4 (some centres undefined)
Return: true

Enquiry: # outcome recorded in this test, key = Cc1c(N)nc([C@H](CC(N)=O)NC[C@H](N)C(N)=O)nc1C(=O)N[C@H](C(=O)N[C@H](C)[C@@H](O)CC(=O)N[C@H](C(=O)NC(O[C@@H]1O[C@@H](C)[C@@H](N)[C@@H](O)[C@H]1O)C(O)c1nc(-c2nc(C(=O)NCCCCN)cs2)cs1)[C@@H](C)O)[C@@H](O[C@@H]1O[C@@H](CO)[C@@H](O)[C@H](O)[C@@H]1O[C@H]1O[C@H](CO)[C@@H](O)[C@H](OC(N)=O)[C@@H]1O)c1c[nH]cn1 (some centres undefined)
Return: true

Enquiry: # outcome recorded in this test, key = CC12CCC(O)CC1CCC1C2CCC2(C)C(C(=O)CC(O)C(F)(F)F)CCC12 (centres undefined)
Return: false

Enquiry: # outcome recorded in this test, key = COC(=O)C1=C(C)NC(=S)NC1c1ccc(N(CCCl)CCCl)cc1Cl (centres undefined)
Return: true

The measurements presented in this section are drawn from PubChem BioAssay (NCI).
